Consider the following compounds and their measured Vd readings.
- measurement.notes: Volume of distribution in CD1 mouse at 2 mg/kg, iv and 10 mg/kg, po
- Format: ADME, organism-based
- condition.context: in vivo, read-out: Vdss

Examples with their reported Vd follow.
For CC1CCN(c2cc(N3CCN(C)CC3)ccc2NC(=O)c2ccc(C#N)o2)CC1 , what is its reported Vd?
11.4 L/kg

// next record CN1CCN(c2ccc(NC(=O)c3ccc(C#N)o3)c(N3CCCCC3)c2)CC1
7.97 L/kg

// switching to the query compound
Using the record for CC1CCN(c2cc(N3CCN(C)CC3)ccc2NC(=O)c2cc(C#N)c[nH]2)CC1 , report its Vd.
5.63 L/kg
